Biological target: T1, recombinant human TIGIT (Sino Biological) (human, UniProt Q495A1 22-138)
T1 construct: Bought protein; NP_776160.2; also called human TIGIT antigen; hTIGIT
T1 sequence: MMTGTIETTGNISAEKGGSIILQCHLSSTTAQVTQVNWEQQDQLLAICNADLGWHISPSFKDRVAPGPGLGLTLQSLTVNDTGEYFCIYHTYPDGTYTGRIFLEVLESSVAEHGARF
Test: SPR (Biacore T200), single cycle kinetics, IgG from supernatant captured on anti-human chip, TIGIT as analyte, 1:1 fit;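 note: measured at 25 °C in HBS-P+ with 1% BSA, four ascending TIGIT concentrations, 210 s association per step, one final 900 s dissociation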
pKd: −log10 of the molar value.
observed.property: pKd

INSERT INTO assay_data (binder, observed_property, measured_value) VALUES
  ('7A6 VH4/Vκ1 humanized antibody (human IgG1, kappa) (antibody, V domains shown, Tested as IgG in supernatant of transiently transfected HEK293 EBNA cells) VH: QVQLQESGPGLVKPSQTLSLTCTVTGYSITSDYAWNWIRQPPGKGLEWMGYISYSGSARYNPSLKSRVTISRDTSKNQFSLKLSSVTAADTAVYYCARKGYPAYFAYWGQGTLVTVSS VL: DIVMTQSHSFLSASVGDRVSITCKASQDVSTAVAWYQQKPGQAPELLIYSASYRYTGVPDRFTGSGSGTDFTLTISSLQAEDVAVYYCQHHYSTPYTFGQGTKLEMKR', 'pKd', 9.21),
  ('7A6 VH2/Vκ3 humanized antibody (human IgG1, kappa) (antibody, V domains shown, Tested as IgG in supernatant of transiently transfected HEK293 EBNA cells) VH: DVQLQESGPGLVKPSQTLSLTCTVTGYSITSDYAWNWIRQPPGKGLEWMGYISYSGSARYNPSLKSRITISRDTSKNQFSLKLSSVTAEDTATYYCARKGYPAYFAYWGQGTLVTVSS VL: DIQMTQSPSSLSASVGDRVSITCKASQDVSTAVAWYQQKPGQAPRLLIYSASYRYTGVPDRFSGSGSGTDFTLTISSLQAEDVAVYYCQHHYSTPYTFGQGTKLEIKR', 'pKd', 9.05),
  ('7A6 VH1/Vκ2 humanized antibody (human IgG1, kappa) (antibody, V domains shown, Tested as IgG in supernatant of transiently transfected HEK293 EBNA cells) VH: DVQLQESGPGLVKPSQTLSLTCTVTGYSITSDYAWNWIRQPPGKGLEWMGYISYSGSARYNPSLKSRITISRDTSMNQFSLKLNSVTAEDTATYYCARKGYPAYFAYWGQGTLVTVSS VL: DIVMTQSPSSLSASVGDRVSITCKASQDVSTAVAWYQQKPGQAPRLLIYSASYRYTGVPDRFTGSGSGTDFTLTISSLQAEDVAVYYCQHHYSTPYTFGQGTKLEIKR', 'pKd', 9.09);
